- assay-system: T1, EsCas13d, nuclease-dead (Eubacterium siraeum, UniProt B0MS50, R295A;H300A;R849A;H854A)
- T1 sequence: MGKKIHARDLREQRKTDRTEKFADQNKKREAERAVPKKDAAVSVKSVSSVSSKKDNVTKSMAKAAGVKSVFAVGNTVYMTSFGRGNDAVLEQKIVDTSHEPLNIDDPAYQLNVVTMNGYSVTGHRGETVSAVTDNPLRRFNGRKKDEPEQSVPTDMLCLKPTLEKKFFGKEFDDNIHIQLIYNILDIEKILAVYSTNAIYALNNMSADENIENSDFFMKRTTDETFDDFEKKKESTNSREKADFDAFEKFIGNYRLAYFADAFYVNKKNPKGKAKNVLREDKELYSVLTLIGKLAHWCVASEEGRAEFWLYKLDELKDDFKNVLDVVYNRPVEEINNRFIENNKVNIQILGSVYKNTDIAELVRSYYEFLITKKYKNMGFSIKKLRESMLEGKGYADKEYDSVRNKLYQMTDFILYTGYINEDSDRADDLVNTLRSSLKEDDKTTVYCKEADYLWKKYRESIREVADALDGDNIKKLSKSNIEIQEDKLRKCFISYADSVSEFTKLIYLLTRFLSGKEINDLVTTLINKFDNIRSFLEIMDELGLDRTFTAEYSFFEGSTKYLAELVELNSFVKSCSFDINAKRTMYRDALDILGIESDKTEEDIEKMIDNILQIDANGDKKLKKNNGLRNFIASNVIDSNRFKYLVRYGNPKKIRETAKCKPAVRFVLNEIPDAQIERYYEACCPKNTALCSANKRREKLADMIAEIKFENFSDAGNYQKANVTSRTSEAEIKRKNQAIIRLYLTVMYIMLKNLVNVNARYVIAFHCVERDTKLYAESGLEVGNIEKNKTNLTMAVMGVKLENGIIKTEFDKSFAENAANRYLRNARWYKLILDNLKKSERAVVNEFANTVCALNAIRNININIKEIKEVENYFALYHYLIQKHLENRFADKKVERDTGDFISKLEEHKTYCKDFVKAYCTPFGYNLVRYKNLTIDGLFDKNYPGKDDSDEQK
- assay-explanation: crRNA (strand 1, pre-loaded); Mg2+; 40 mM Tris-HCl pH 7.5, 150 mM NaCl, 6 mM MgCl2, 1 mM DTT, 0.1% Tween-20, 0.2 mg/ml BSA; 25 C; 10 min per concentration, then washed
- protocol-conditions: tags: His6-TwinStrep-SUMO cleaved; N-terminal SNAP kept (SNAP-Surface 488); label: 3' end held by stalled T7 RNA polymerase
property-measured: Kd (nM)
Report as a plain number; the unit nM is understood.

Q: Find the recorded Kd belonging to target 1 insG 3' of 19,insU 3' of 15 (mixed) RNA 1: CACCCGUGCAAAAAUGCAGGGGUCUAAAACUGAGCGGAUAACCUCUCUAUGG RNA 2: GGGAAUGGAUCCACAUCUACGAAUUCGUACCAUGAGAGUAGGUUAUCCGCUCACCGAGAUCGGAAGAGCACACGU and report it.
A: 60

Q: GET /values?readout=Kd&item= target 1 insA 3' of 19,insG 3' of 2 (mixed) RNA 1: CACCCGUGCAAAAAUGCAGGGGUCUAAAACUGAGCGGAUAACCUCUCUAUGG RNA 2: GGGAAUGGAUCCACAUCUACGAAUUCGUACCAUAAGAGAGGUUAUCCGCUCGACCGAGAUCGGAAGAGCACACGU
A: 19.5

Q: Record request: Kd value, item target 1 insA 3' of 15,insU 3' of 1 (mixed) RNA 1: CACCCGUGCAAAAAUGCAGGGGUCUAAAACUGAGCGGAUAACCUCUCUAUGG RNA 2: GGGAAUGGAUCCACAUCUACGAAUUCGUACCAUAGAGAAGGUUAUCCGCUCAUCCGAGAUCGGAAGAGCACACGU
A: 6.7

Q: Please look up its Kd: target 1 insG 3' of 16,insA 3' of 2 (mixed) RNA 1: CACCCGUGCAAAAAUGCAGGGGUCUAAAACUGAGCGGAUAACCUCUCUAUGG RNA 2: GGGAAUGGAUCCACAUCUACGAAUUCGUACCAUAGAGGAGGUUAUCCGCUCAACCGAGAUCGGAAGAGCACACGU
A: 14.3

Q: Which Kd value is on record for target 1 MT 5'PFS GUA 3'PFS UAU (mixed) RNA 1: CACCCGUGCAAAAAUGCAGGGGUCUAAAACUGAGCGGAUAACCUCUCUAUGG RNA 2: GGGAAUGGAUCCACAUCUACGAAUUCGUACCAUAGAGAGGUUAUCCGCUCAUAUAGAUCGGAAGAGCACACGU ?
A: 9.75

Q: Reported Kd, binder target 1 MT 5'PFS AAC 3'PFS UAC (mixed) RNA 1: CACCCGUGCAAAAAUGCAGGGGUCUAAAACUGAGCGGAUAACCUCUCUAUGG RNA 2: GGGAAUGGAUCCACAUCUACGAAUUCAACCCAUAGAGAGGUUAUCCGCUCAUACAGAUCGGAAGAGCACACGU : ____
A: 31

Q: I have this binder here, target 1 insG 3' of 10,insC 3' of 3 (mixed) RNA 1: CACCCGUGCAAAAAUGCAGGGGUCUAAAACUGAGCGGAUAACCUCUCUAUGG RNA 2: GGGAAUGGAUCCACAUCUACGAAUUCGUACCAUAGAGAGGUUGAUCCGCUCCACCGAGAUCGGAAGAGCACACGU , and I need its recorded Kd.
A: 26.7
